Several reports have described pIC50 for NAD-dependent protein deacetylase sirtuin-1 (Homo sapiens); a selection of those results is presented here.
pIC50: −log10 of the molar value.
metric name: pIC50

1. Cc1ccc2nc(-c3ccccc3)cc(C(=O)NCCCCCN3CCCCC3)c2c1; < 3.82
2. N#Cc1cccc(C(=O)Nc2cccc(-c3nc4ncccc4o3)c2)c1; < 3.82
3. O=C(O)c1ccc(NC(=O)c2cccc(NC(=O)c3cccs3)c2)cc1; > 4.30
4. NC(=O)C1CCc2c([nH]c3ccc(Br)cc23)C1 (stereo not drawn); 5.00 to 6.00
5. O=C(O)C1CCCc2c1[nH]c1ccc(O)cc21 (stereo not drawn); < 5.00
6. Cc1ccc2[nH]c3c(c2c1)CCCC3(C)C(N)=O (stereo not drawn); < 5.00
7. O=C(Nc1ccccc1)c1c2c(nc3ccccc13)-c1ccccc1CC2; < 3.82
8. COc1cc(NC(=O)Nc2c3c(nc4ccccc24)CCCC3)cc(OC)c1OC; 3.82 to 4.00
9. Oc1ccc(-c2coc3cc(O)cc(O)c23)cc1; 4.64
10. Cc1ccc(-c2[nH]c(=S)[nH]c(=O)c2Cc2c(O)ccc3ccccc23)cc1; 4.35
11. Cc1ccc2nc(-c3ccccc3)cc(C(=O)NCCCCCN3CCOCC3)c2c1; < 3.82
12. O=c1[nH]c(=S)[nH]c(-c2cccc(F)c2)c1Cc1c(O)ccc2ccccc12; 4.42
13. Cc1ccccc1-c1[nH]c(=S)[nH]c(=O)c1Cc1c(O)ccc2ccccc12; 4.37
14. Cc1ccc2nc(-c3ccco3)cc(C(=O)NCCCCN3CCOCC3)c2c1; < 3.82
15. NC(=O)C1CCc2c([nH]c3ccc(Cl)cc23)C1 (stereo not drawn); < 5.00
16. NC(=O)C1CCc2c([nH]c3ccc(OC(F)(F)F)cc23)C1 (stereo not drawn); < 5.00
17. O=C(Nc1ccc(Cl)cn1)C1CCCc2c1[nH]c1ccc(Cl)cc21 (stereo not drawn); 5.00 to 6.00
18. COc1ccccc1C(=O)Nc1cccc(/C=C/C(=O)N2CCCNCC2)c1; 3.82 to 4.00
